All values here come from ChEMBL document CHEMBL1135104.

# TARGET OR SYSTEM: Steryl-sulfatase (Homo sapiens)
# Sequence (P08842 whole entry): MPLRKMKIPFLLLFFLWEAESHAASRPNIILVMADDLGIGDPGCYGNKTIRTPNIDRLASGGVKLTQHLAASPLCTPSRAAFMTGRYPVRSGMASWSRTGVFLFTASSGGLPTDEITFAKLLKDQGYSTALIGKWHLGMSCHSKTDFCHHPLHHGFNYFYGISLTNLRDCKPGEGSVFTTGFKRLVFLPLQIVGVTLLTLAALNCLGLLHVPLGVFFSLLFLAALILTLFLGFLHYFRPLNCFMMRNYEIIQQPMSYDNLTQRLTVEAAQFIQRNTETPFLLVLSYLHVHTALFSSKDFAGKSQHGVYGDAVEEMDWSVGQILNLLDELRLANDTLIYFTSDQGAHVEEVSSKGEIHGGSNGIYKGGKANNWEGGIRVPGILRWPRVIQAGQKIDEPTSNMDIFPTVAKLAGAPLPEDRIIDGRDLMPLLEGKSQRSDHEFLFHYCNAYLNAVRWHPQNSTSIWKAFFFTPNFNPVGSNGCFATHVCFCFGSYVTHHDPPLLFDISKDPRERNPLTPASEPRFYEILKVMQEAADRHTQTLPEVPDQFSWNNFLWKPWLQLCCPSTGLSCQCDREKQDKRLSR
# ASSAY PROTOCOL: Inhibitory activity againist Estrone sulfatase from MCF-7 cells ([…])
pIC50: −log10 of the molar value.
MEASURED PARAMETER: pIC50

Please provide the recorded pIC50 for COc1c2c(c(O)c3c1C(=O)c1c(cc(O)c(C)c1O)C3=O)-c1c(cc(/C=N/N=C(\S)N3CCCCC3)c(C(=O)O)c1O)CC2 , tested on Steryl-sulfatase (Homo sapiens).
5.10

Further, for CCCCCCCCC/N=C(\S)N/N=C/c1cc2c(c(O)c1C(=O)O)-c1c(O)c3c(c(OC)c1CC2)C(=O)c1c(cc(O)c(C)c1O)C3=O ?
4.72

Further, for COc1c2c(c(O)c3c1C(=O)c1c(cc(O)c(C)c1O)C3=O)-c1c(cc3c(c1O)C(=O)OC3O)CC2 (centres undefined) ?
4.39

a = COc1c2c(c(O)c3c1C(=O)c1c(cc(O)c(C)c1O)C3=O)-c1c(cc(/C=N/N=C(\S)NC3CC3)c(C(=O)O)c1O)CC2
b = COc1c2c(c(O)c3c1C(=O)c1c(cc(O)c(C)c1O)C3=O)-c1c(cc(/C=N/N=C(\S)NC3CCC(C)CC3)c(C(=O)O)c1O)CC2 (centres undefined)
Compare a and b by numeric pIC50 and name the larger one. Choose, then provide that item's label.
b
(b: 5.40, a: 4.66)

1 = COc1c2c(c(O)c3c1C(=O)c1c(cc(O)c(C)c1O)C3=O)-c1c(cc(/C=N/N=C(\S)NC(C)C)c(C(=O)O)c1O)CC2
2 = COc1c2c(c(O)c3c1C(=O)c1c(cc(O)c(C)c1O)C3=O)-c1c(cc(/C=N/N=C(\S)NN3CCCCC3)c(C(=O)O)c1O)CC2
Which value of pIC50 is smaller, the one for 1 or the one for 2 ? Choose, then provide that item's label.
1
